Target desc: GLP-1 receptor (UniProt P43220 24-463, limits assumed)
Procedure details: cell-based or functional assay
Where no end group is shown, it is not given here. [ ]: non-standard residue; d: D form. The star is where a group is joined. PEG 40 kDa = PEG (40 kDa) covalently attached to Cys; Myristoyl = CCCCCCCCCCCCCC(=O)*; Aib = CC(C)(N)C(=O)O
Recorded endpoint: relative activity; GLP-1 Receptor (%)
Numeric only. Scale: %

Check out these entries, answers already filled in.
• YXEGTFTSDYSIYLDKQAAXEFVNWLLAGGPSSGAPPPSKC (AIB at position 20 (Example 25); listed among the acylated glucagon peptides in paragraph 284; other non-standard residues as in the sequence listing) [mt-343] = 41.5
• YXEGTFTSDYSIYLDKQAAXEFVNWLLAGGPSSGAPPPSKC (AIB at position 20 (Example 25); other non-standard residues as in the sequence listing) [mt-344] = 10.4
• Y[Aib]EGTFTSDK(Myristoyl)SIYLDKQAA[Aib]EFVC(PEG 40 kDa)WLLAGGPSSGAPPPS-NH2 [mt-341] = 14.6
• Y[Aib]EGTFTSDYSIYLDKQAA[Aib]EFVC(PEG 40 kDa)WLLAGGPSSGAPPPSK(Myristoyl)-NH2 [mt-353] = 129

Now turn to the next binder.
QUERY: Please look up its relative activity; GLP-1 Receptor: HXQGTFTSDYSKYLDEQAAKEFICWLMNGGPSSGAPPPSK (listed among the acylated glucagon peptides in paragraph 284; non-standard residues as in the sequence listing) [mt-345]
RESULT: 153

src = patent US20110166062A1
